- Tested on: novel coronavirus SARS-COV-2 safe replicon system
- test_protocol: microbe, parasite or virus in culture
- Type: cell-based
- test_context: Severe acute respiratory syndrome coronavirus 2, HEK-293T, read-out: IC50 (semi-inhibitory concentration), inhibition of cellular luciferase activity
pIC50: −log10 of the molar value.
Quick list: pIC50 per entry.

{"columns": ["smiles_repr", "pIC50"],
 "data": [
  ["CCC(CC)COC(=O)[C@H](C)N[P@](=O)(OC[C@H]1O[C@@](C#N)(c2ccc3c(N)ncnn23)[C@H](O)[C@@H]1O)Oc1ccccc1", 4.91],
  ["Cc1cccc(C)c1OCC(=O)N[C@@H](Cc1ccccc1)[C@@H](O)C[C@H](Cc1ccccc1)NC(=O)[C@H](C(C)C)N1CCCNC1=O", 5.17]
]}
